Molecular target: T1, TBD-6 (LC I93A)
T1 construct: Fab; also called LC I93A mutant
Test: competition ELISA, peptide vs Fab binding to captured biotin-TROP2
pIC50: −log10 of the molar value. Where no end group is shown, it is not given here.
quantity.name: pIC50

IDFCAMYHWPICDT (cysteine pairing not given here; also: biotinylated, site not given here) [Peptide-42] | 6.66
PDFCYMYGWPICDS (cysteine pairing not given here; also: biotinylated, site not given here) [Peptide-32] | 5.48
VDFCYLYSWPICTK (cysteine pairing not given here; also: biotinylated, site not given here) [Peptide-40] | 5.64

1 = EDFCYWYQWPICSD (cysteine pairing not given here; also: biotinylated, site not given here) [Peptide-35]
2 = VDFCGLYHWPICYQVD (cysteine pairing not given here; also: biotinylated, site not given here) [Peptide-39]
Name the one with the greater pIC50 value, either 1 or 2 as given. Response format: the label of the selected entry. 2
(2: 6.17, 1: 5.49)
